Collected Fold Induction, Z3 Assay, 33 uM values appear next to each entry.
Biological target: Bombyx mori EcR (VP16 fusion, CVBE switch construct) (Bombyx mori)
Sequence (P49881 86-606): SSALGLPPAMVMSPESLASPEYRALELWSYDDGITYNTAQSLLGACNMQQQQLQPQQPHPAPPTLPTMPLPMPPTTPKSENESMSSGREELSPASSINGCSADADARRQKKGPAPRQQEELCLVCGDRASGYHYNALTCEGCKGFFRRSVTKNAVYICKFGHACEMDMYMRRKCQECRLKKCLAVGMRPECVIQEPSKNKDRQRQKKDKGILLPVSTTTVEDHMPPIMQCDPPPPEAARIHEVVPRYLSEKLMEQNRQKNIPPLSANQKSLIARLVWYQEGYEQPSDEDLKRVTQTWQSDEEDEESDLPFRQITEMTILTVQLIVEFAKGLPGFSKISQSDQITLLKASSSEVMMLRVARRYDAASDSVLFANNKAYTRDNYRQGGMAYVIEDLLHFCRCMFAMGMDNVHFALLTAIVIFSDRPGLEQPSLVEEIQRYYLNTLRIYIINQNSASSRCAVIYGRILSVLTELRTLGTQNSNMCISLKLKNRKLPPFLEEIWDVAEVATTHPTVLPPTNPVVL
Sequence (P19793 whole entry partner, the tested form may be a part): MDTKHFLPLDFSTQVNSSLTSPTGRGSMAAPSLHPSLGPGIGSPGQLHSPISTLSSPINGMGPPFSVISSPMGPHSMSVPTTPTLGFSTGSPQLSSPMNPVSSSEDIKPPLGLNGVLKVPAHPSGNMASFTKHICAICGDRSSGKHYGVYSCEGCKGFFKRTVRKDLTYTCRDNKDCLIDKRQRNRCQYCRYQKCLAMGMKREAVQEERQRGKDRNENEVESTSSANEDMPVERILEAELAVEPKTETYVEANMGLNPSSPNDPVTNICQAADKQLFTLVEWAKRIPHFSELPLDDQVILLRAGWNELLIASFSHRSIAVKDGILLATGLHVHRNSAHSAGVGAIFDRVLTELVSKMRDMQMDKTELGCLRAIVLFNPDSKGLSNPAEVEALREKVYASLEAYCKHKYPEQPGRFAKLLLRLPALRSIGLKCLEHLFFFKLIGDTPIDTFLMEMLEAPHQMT
Test: Z3 Assay (HEK-293 cells with CVBE and 6XEcRE LacZ, β-galactosidase reporter)
Conditions: 33 uM ligand; ligand treated / DMSO treated cells; average of two wells

Example entries and their recorded answers appear below.
query: Look at this molecule and give its reported Fold Induction, Z3 Assay, 33 uM. CCCC(N(NC(=O)c1cccc(OC)c1CC)C(=O)c1cc(C)cc(C)c1)C(C)(C)C (centres unmarked) [RG-115830]
result: 983

query: Look at this molecule and give its reported Fold Induction, Z3 Assay, 33 uM. CCc1c(C(=O)NN(C(=O)c2ccccc2OC)C(C)(C)C)ccc2c1OCCO2 [RG-115244]
result: 816

query: Look at this molecule and give its reported Fold Induction, Z3 Assay, 33 uM. COc1cccc(C(=O)NN(C(=O)c2ccc(Cl)cc2F)C(C)(C)C)c1C [RG-100929]
result: 490

query: Look at this molecule and give its reported Fold Induction, Z3 Assay, 33 uM. CCc1c(C(=O)NN(C(=O)c2cc(C)cc(C)c2)C(C)(C)C)ccc2c1OC(C)O2 (centres unmarked) [RG-101659]
result: 876

query: Look at this molecule and give its reported Fold Induction, Z3 Assay, 33 uM. CCc1ccc(C(=O)NN(C(=O)c2cc(C)cc(C)c2)C(C)C(C)(C)C)cc1 (centres unmarked) [RG-103451]
result: 118

query: Look at this molecule and give its reported Fold Induction, Z3 Assay, 33 uM. Cc1cc(C)cc(C(=O)N(NC(=O)c2ccc3ncsc3c2)C(C)(C)C)c1 [RG-101312]
result: 292

query: Look at this molecule and give its reported Fold Induction, Z3 Assay, 33 uM. CCc1c(OC)cccc1C(=O)NN(C(=O)c1cc(OC)c(C)c(OC)c1)C(CC)C(C)(C)C (centres unmarked) [RG-115831]
result: 544

query: Look at this molecule and give its reported Fold Induction, Z3 Assay, 33 uM. CC(O)c1ccc(C(=O)NN(C(=O)c2cc(CO)cc(CO)c2)C(C)(C)C)cc1 (centres unmarked) [RG-100021]
result: 1

query: Look at this molecule and give its reported Fold Induction, Z3 Assay, 33 uM. CCc1ccc(C(=O)NN(C(=O)c2ccccc2CC)C(C)(C)C)cc1 [RG-102592]
result: 574

query: Look at this molecule and give its reported Fold Induction, Z3 Assay, 33 uM. COc1cccc(C(=O)NN(C(=O)c2cc(Cl)cc(Br)c2)C(C)(C)C)c1C [RG-101408]
result: 398

Others:
query: Look at this molecule and give its reported Fold Induction, Z3 Assay, 33 uM. CCc1c(OC)cccc1C(=O)NN(C(=O)c1ccccc1[N+](=O)[O-])C(C)(C)C [RG-115330]
result: 432

query: Look at this molecule and give its reported Fold Induction, Z3 Assay, 33 uM. COc1cccc(C(=O)N(NC(=O)c2ccc3c(c2C)OCCO3)C(C)(C)C)c1 [RG-100360]
result: 891

query: Look at this molecule and give its reported Fold Induction, Z3 Assay, 33 uM. COc1cc(OC)cc(C(=O)N(NC(=O)c2cccc(C)c2C)C(C)(C)C)c1 [RG-100764]
result: 369

query: Look at this molecule and give its reported Fold Induction, Z3 Assay, 33 uM. CCc1c(C(=O)NN(C(=O)c2cccc(OC)c2)C(C)(C)C)ccc2c1OCCO2 [RG-100691]
result: 565

query: Look at this molecule and give its reported Fold Induction, Z3 Assay, 33 uM. CC(C)(C)N(NC(=O)c1ccc(Br)cc1)C(=O)c1cc(Cl)cc(Cl)c1 [RG-101759]
result: 158

query: Look at this molecule and give its reported Fold Induction, Z3 Assay, 33 uM. COc1cc(C(=O)N(NC(=O)c2ccc3c(c2C)OCCO3)C(C)(C)C)c([N+](=O)[O-])c(OC)c1C [RG-115609]
result: 383

query: Look at this molecule and give its reported Fold Induction, Z3 Assay, 33 uM. COc1cccc(C(=O)NN(C(=O)c2cc(C)cc(C)c2)C(C)(C)C)c1[N+](=O)[O-] [RG-100568]
result: 1193

query: Look at this molecule and give its reported Fold Induction, Z3 Assay, 33 uM. COc1cccc(C(=O)NN(C(=O)c2cc(C)ccc2Cl)C(C)(C)C)c1Cl [RG-101248]
result: 375

query: Look at this molecule and give its reported Fold Induction, Z3 Assay, 33 uM. CCc1c(OC)cccc1C(=O)NN(C(=O)c1cc(C)cc(C)c1)C(C)(C)CO [RG-115143]
result: 1045

query: Look at this molecule and give its reported Fold Induction, Z3 Assay, 33 uM. Cc1cc(C)cc(C(=O)N(NC(=O)c2ccc3c(c2Br)OCCO3)C(C)(C)C)c1 [RG-101340]
result: 432

query: Look at this molecule and give its reported Fold Induction, Z3 Assay, 33 uM. Cc1cc(C)cc(C(=O)N(NC(=O)c2cc3c(cc2C)OCO3)C(C)(C)C)c1 [RG-101088]
result: 302

query: Look at this molecule and give its reported Fold Induction, Z3 Assay, 33 uM. CCc1c(OC)cccc1C(=O)NN(C(=O)c1ccc(C(=O)OC)cn1)C(C)(C)C [RG-115717]
result: 9

query: Look at this molecule and give its reported Fold Induction, Z3 Assay, 33 uM. CC(C)(C)N(NC(=O)c1c(F)ccc(F)c1F)C(=O)c1ccc(F)cc1Cl [RG-100620]
result: 428

query: Look at this molecule and give its reported Fold Induction, Z3 Assay, 33 uM. CCc1ccc(C(=O)NN(C(=O)c2ccc(F)cc2)C(C)(C)C)c(F)c1 [RG-100901]
result: 185

query: Look at this molecule and give its reported Fold Induction, Z3 Assay, 33 uM. COc1ccccc1C(=O)N(NC(=O)c1ccc2c(c1C)CCCO2)C(C)(C)C [RG-115102]
result: 865

query: Look at this molecule and give its reported Fold Induction, Z3 Assay, 33 uM. Cc1c(C(=O)NN(C(=O)c2ccc(F)c(F)c2)C(C)(C)C)ccc2c1CCCO2 [RG-115416]
result: 1116
